assay: pKa' value; assay type: physicochemical; details: dihydrochloride
Where a name gives a salt, the structure may show the parent alone.
quantityMeasured: pKa
# output: bare number, no unit

Ask | Requested field: pKa. Item: C/C=C\C=C\C(=O)NC(C)C(O)CC(N)CC(=O)NCCC(=N)N (centres unmarked) [TAN-749B dihydrochloride]
Reply | 8.05

Shift focus to the following entry.
Ask | Looking for the measured pKa of C/C=C\C=C\C(=O)NCC(O)CC(N)CC(=O)NCCC(=N)N (centres unmarked) [TAN-749A dihydrochloride] , can you help?
Reply | 8

====

Staphylococcus aureus 308A-1: reported MIC for various molecules.
Write the number in mg/L without appending the unit.

Ask | Which MIC reading was recorded for the molecule C/C=C\C=C\C(=O)NCC(O)CC(N)CC(=O)NCCC(=N)N (stereo not shown) ?
Reply | 12.5

Others:
Ask | Please give the measured MIC for this molecule: C/C=C\C=C\C(=O)NC(C)C(O)CC(N)CC(=O)NCCC(=N)N (stereo not shown)
Reply | 3.13

Ask | # lookup: MIC of C/C=C/C=C/C(=O)NC(C)C(O)CC(N)CC(=O)NCCC(=N)N (stereo not shown)
Reply | 25
